Examples of binders with documented IC50 follow.
# TGT: T1, recombinant human PDGF-BB (human, UniProt P01127 82-190, biotin-labelled in the binding and competition ELISAs (sites not given))
# T1 construct: Bought protein (CST cat#8912BF) in the ELISAs and cell assays; purified recombinant PDGF-BB in Biacore; also called huPDGF-BB; hPDGF-BB
# EXPERIMENTAL_PROTOCOL: receptor competition ELISA: antibody pre-incubated with biotin-hPDGF-BB, binding to coated hPDGF-Rβ-Fc
Value expressed in nM; do not type the unit.

Worked examples, 2 binders total:
Q. Would you kindly share the measured IC50 for chBDI-1E1 (antibody, human IgG1, V domains shown, also called chimeric BDI-1E1-D5) VH: EVKLQQSGDELVRPGASVKMSCKASGYTFTDYVMHWVKQSPGQGLEWIGTIIPLIDTTSYNQKFKGKATLTADKSSNTAYMELSRLTSEDSAVYYCARTSPYYYSSYDVMDAWGQGASVTVSS VL: NIQLTQSPSLLSASVGDRVTLSCKGSQNINNYLAWYQQKLGEAPKLLIYKTNNLQTGIPSRFSGCGSGTDYTLTISSLHSEDLATYYCYQYDNGYTFGAGTKLELK ?
A. 0.417

Q. Fill in: IC50 of chBDI-5G2 (antibody, human IgG1, V domains shown, also called chimeric BDI-5G2-F9) VH: QVTLKESGPGILQPSQTLSLTCTFSGFSLSTFGMGVGWIRQPSGKGLEWLANIWWDDDKYYNPSLKNRLTISKDTSNSQAFLEITNVDTADTATYYCARISTGISSYYVMDAWGQGASVTVSS VL: QFTLTQPKSVSGSLRSTITIPCERSSGDIGDTYVSWYQQHLGRPPINVIYGNDQRPSEVSDRFSGSIDSSSNSASLTITNLQMDDEADYFCQSYDSDIDIVFGGGTKLTVL is ___
A. 1.08

Switching to the query record.
Q. Record request: IC50 value, item chBDI-5H1 (antibody, human IgG1, V domains shown, also called chimeric BDI-5H1-F6) VH: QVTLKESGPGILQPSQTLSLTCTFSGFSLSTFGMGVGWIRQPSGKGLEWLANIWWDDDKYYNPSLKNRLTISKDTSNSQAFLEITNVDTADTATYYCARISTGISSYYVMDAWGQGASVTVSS VL: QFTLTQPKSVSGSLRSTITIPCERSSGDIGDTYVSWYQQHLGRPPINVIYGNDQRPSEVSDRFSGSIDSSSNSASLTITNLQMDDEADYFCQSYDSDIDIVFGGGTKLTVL
A. 1.04
